Test system: Moraxella catarrhalis
Assay: Antibacterial activity against beta-lactamase producing Moraxella catarrhalis isolate 5 at 500 ug/ml after overnight incubation by disc diffusion assay
Format: functional, organism-based
Activity calls are given as the source filed them. The calls are words filed in the database; no cut-off is given here.
Bench note: report the call from active, inactive

Nc1ccc(SC2CC(=O)N2S(=O)(=O)O)cc1 (racemic)    active
O=C1CC(Sc2ccccc2)N1 (racemic)    inactive
Nc1ccc(SC2CC(=O)N2)cc1 (racemic)    active
O=C1CC(SCCCO)N1 (racemic)    inactive
O=C1CC(Sc2ccc(S)cc2)N1S(=O)(=O)O (racemic)    active

Please share the test call associated with CCOC(=O)CN1C(=O)C(OC)C1C(C)(C)SSC (racemic) . active
